- Tested on: locomotor activity in mice
- ASSAY DETAILS: Inhibition of locomotor activity in mice
- Type: in vivo
- CONDITION CONTEXT: Mus musculus; mice, IP; read-out: Inhibition of Locomotor Activity in Mice (ED50)
Where a name gives a salt, the structure may show the parent alone.

- COMPOUND: "Nc1nc2c(s1)CCC1C2=CCCN1CCc1ccccc1 (racemic) [Example 5f]"
  ED50, mg/kg: 31.3
- COMPOUND: "CCCN1CCC=C2c3nc(NC(C)=O)sc3CCC21 (racemic) [Example 15a]"
  ED50, mg/kg: 16.3
- COMPOUND: "C=CCN1CCC=C2c3nc(NC(C)=O)sc3CCC21 (racemic) [Example 15b]"
  ED50, mg/kg: 3.1
- COMPOUND: "Nc1nc2c(s1)CCC1C2=CCCN1Cc1ccccc1 (racemic) [Example 5g, dihydrochloride, hydrate]"
  ED50, mg/kg: 26.1

---

- System: locomotor activity in mice
- ASSAY DETAILS: Inhibition of locomotor activity in mice
- Format: in vivo
- CONDITION CONTEXT: Mus musculus, ip, read-out: Inhibition of Locomotor Activity in Mice (ED50)
Where a name gives a salt, the structure may show the parent alone.
PROPERTY NAME: log10 of ED50 (log10 of the value in mg/kg)

- COMPOUND: "CCN1CCC=C2c3nc(N)sc3CCC21 (racemic)"
  log10 of ED50: -0.21
- COMPOUND: "Nc1nc2c(s1)CCC1NCCC=C21 (racemic) [Example 40, dihydrochloride]"
  log10 of ED50: 1.06
- COMPOUND: "CCCN1CCC=C2c3nc(N)sc3CCC21 (single isomer, unassigned; (+)) [Example 16, dihydrochloride]"
  log10 of ED50: 0.40
- COMPOUND: "C=CCN1CCC=C2c3nc(N)sc3CCC21 (racemic) [Example 5d, dihydrochloride]"
  log10 of ED50: -0.62
- COMPOUND: "CCCN1CCC=C2c3nc(N)sc3CCC21 (racemic) [Example 5]"
  log10 of ED50: 0.74
- COMPOUND: "CCCN1CCC[C@H]2c3sc(N)nc3CC[C@@H]21 (racemic)"
  log10 of ED50: -0.15
- COMPOUND: "CN1CCC=C2c3nc(N)sc3CCC21 (racemic)"
  log10 of ED50: 0.41
- COMPOUND: "Nc1nc2c(s1)CCC1C2=CCCN1CC1CC1 (racemic) [Example 5e, dihydrochloride]"
  log10 of ED50: 1.08
- COMPOUND: "CCCCN1CCC=C2c3nc(N)sc3CCC21 (racemic) [Example 5c, dihydrochloride, hemihydrate]"
  log10 of ED50: 1.17

---

Recorded measurements of inhibition at 5 µM, one per entry
- TESTED SYSTEM: haloperidol binding (Bos taurus)
- Construct: from tissue
- Sequence (P20288 whole entry): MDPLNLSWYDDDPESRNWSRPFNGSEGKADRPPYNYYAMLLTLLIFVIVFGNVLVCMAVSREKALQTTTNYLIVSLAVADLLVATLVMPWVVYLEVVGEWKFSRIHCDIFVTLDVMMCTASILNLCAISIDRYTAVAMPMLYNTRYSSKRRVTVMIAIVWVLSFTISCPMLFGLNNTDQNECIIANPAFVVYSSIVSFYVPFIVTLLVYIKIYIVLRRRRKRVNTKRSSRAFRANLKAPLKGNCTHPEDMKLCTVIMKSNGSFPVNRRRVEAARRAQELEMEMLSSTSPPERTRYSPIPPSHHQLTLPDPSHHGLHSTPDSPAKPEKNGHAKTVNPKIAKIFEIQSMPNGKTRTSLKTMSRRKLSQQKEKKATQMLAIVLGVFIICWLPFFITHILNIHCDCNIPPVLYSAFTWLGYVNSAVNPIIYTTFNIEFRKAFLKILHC
- ASSAY DETAILS: Inhibition of haloperidol binding in a receptor binding assay
- CONDITION CONTEXT: read-out: Percent Inhibition Haloperidol Binding
Where a name gives a salt, the structure may show the parent alone.

- COMPOUND: "CCN1CCC=C2c3nc(N)sc3CCC21 (racemic) [Example 5b]"
  inhibition at 5 µM / %: 68
- COMPOUND: "Nc1nc2c(s1)CCC1NCCC=C21 (racemic) [Example 40, dihydrochloride]"
  inhibition at 5 µM / %: 77
- COMPOUND: "CN1CCC=C2c3nc(N)sc3CCC21 (racemic) [Example 5a]"
  inhibition at 5 µM / %: 62
- COMPOUND: "CCCN1CCC=C2c3nc(N)sc3CCC21 (single isomer, unassigned; (+)) [Example 16, dihydrochloride]"
  inhibition at 5 µM / %: 76

The measurements presented in this section are drawn from patent US4762843A.
